- TARGET_OR_TEST_SYSTEM: IRAK4 (Homo sapiens, UniProt Q9NWZ3)
- Construct: Degradation of IRAK4 in OCI-LY10 was quantitatively measured using Meso Scale Discovery technology; endogenous in cells; host or cells: OCI-LY10
- ASSAY_OVERVIEW: IRAK4 MSD Degradation in OCI-LY10
- Type: cell-based
- EXPERIMENTAL_SETUP: OCI-LY10 cells, 24 hrs incubation, MSD; read-out: IRAK4 degradation in OCI-LY10 at 24 hrs: DC50
DC50 listing for selected compounds.

Reference set (4 entries):
COc1cc2nc([C@H]3CC[C@H](CN4CCC5(CC4)CCN(c4cccc6c4n(C)c(=O)n6C4CCC(=O)NC4=O)CC5)CC3)sc2cc1NC(=O)c1cncc(C#N)c1 (some centres unmarked) : > 200 nM
Cn1c(=O)n(C2CCC(=O)NC2=O)c2cccc(C#CCOC3CCN(C[C@H]4CC[C@H](n5cc(NC(=O)c6cnn7ccc(N8C[C@H]9C[C@@H]8CO9)nc67)c(C(C)(C)O)n5)CC4)CC3)c21 (some centres unmarked) : > 200 nM
C[C@H]1CN(c2ccn3ncc(C(=O)Nc4cn([C@H]5CC[C@H](CN6CCN(CC#Cc7cccc8c7n(C)c(=O)n8C7CCC(=O)NC7=O)CC6)CC5)nc4C(F)F)c3n2)C[C@H](C)O1 (some centres unmarked) : < 10 nM
Cn1c(=O)n(C2CCC(=O)NC2=O)c2cccc(C#CC3CCN(C[C@H]4CC[C@H](n5cc(NC(=O)c6cnn7ccc(N8C[C@H]9C[C@@H]8CO9)nc67)c(C(F)F)n5)CC4)CC3)c21 (some centres unmarked) : > 200 nM

Proceed to the following item.
Request: What measured DC50 goes with CN(C[C@H]1CC[C@H](n2cc(NC(=O)c3cnn4cccnc34)c(C(F)F)n2)CC1)c1ccc(-c2cccc3c2n(C)c(=O)n3C2CCC(=O)NC2=O)cc1 (some centres unmarked) ?
Result: > 200 nM

* * *

# Lookup of reported DC50 keyed by entry
- TARGET_OR_TEST_SYSTEM: IRAK4 (Homo sapiens)
- Construct: Degradation of IRAK4 in OCI-LY10 was quantitatively measured using Meso Scale Discovery technology; endogenous in cells; host or cells: OCI-LY10
- ASSAY_OVERVIEW: IRAK4 MSD Degradation in OCI-LY10
- Format: cell-based
- EXPERIMENTAL_SETUP: OCI-LY10 cells, 24 hrs incubation, MSD; read-out: IRAK4 degradation in OCI-LY10 at 24 hrs: DC50

Worked examples, 4 compounds total:
COc1cc2nn([C@H]3CC[C@H](CN4CC=C(c5ccc6c(N7CCC(=O)NC7=O)cncc6c5)C(F)(F)C4)CC3)cc2cc1NC(=O)c1cccc(C(F)(F)F)n1 [I-470] : > 200 nM
Cn1c(=O)n(C2CCC(=O)NC2=O)c2cccc(C#CCN3CCN(C[C@H]4CC[C@H](n5cc(NC(=O)c6cccc7ccc(N8CCC8)nc67)c(C(F)F)n5)CC4)CC3)c21 (some centres unmarked) [I-335] : > 200 nM
CN(C1CCN(c2cccc3c2n(C)c(=O)n3C2CCC(=O)NC2=O)CC1)[C@@H](C#N)[C@H]1CC[C@H](n2cc(NC(=O)c3cnn4cccnc34)c(C(F)F)n2)CC1 (some centres unmarked) [I-242] : > 200 nM
Cn1c(=O)n(C2CCC(=O)NC2=O)c2cccc(OC3CCN([C@H]4CC[C@H](n5cc6cc(NC(=O)c7cccc(C(F)(F)F)n7)ccc6n5)CC4)CC3)c21 (some centres unmarked) [I-741] : < 10 nM

Request: Looking for the measured DC50 of Cn1c(=O)n(C2CCC(=O)NC2=O)c2cccc(C3=CCN(C[C@H]4CC[C@H](n5cc6cc(NC(=O)c7cccc(C(F)(F)F)n7)c(C#N)cc6n5)CC4)CC3F)c21 (some centres unmarked) [I-713] , can you help?
Result: < 10 nM

* * *

- TARGET_OR_TEST_SYSTEM: IRAK4 (Homo sapiens, UniProt Q9NWZ3)
- Construct: Degradation of IRAK4 in OCI-LY10 was quantitatively measured using Meso Scale Discovery technology; endogenous in cells; host or cells: OCI-LY10
- Sequence (Q9NWZ3 1-460): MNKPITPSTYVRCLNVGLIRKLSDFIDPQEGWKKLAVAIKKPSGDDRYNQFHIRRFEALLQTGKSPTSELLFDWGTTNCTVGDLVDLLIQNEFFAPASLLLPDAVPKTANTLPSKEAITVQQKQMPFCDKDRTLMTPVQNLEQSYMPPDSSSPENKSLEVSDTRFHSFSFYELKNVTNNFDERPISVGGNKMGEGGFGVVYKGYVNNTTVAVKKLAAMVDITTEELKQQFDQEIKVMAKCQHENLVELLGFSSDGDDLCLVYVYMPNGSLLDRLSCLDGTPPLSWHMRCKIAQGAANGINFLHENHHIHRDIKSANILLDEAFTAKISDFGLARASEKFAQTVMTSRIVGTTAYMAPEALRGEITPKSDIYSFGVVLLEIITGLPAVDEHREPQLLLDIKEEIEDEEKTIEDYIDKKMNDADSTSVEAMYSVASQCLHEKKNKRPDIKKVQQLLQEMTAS
- ASSAY_OVERVIEW: IRAK4 MSD Degradation in OCI-LY10
- Type: cell-based
- EXPERIMENTAL_SETUP: OCI-LY10 cells, 24 hrs incubation, MSD; read-out: IRAK4 degradation in OCI-LY10 at 24 hrs: DC50
Property: DC50; scope: individual compounds

Use the examples below as a reference point.
Cc1nn([C@H]2CC[C@H](CN3CCN(c4ccc5c(c4)n(C)c(=O)n5C4CCC(=O)NC4=O)CC3)CC2)cc1NC(=O)c1cnn2cc(N(C)C)cnc12 (stereo partly drawn) : > 0.2 µM
Cn1c(=O)n(C2CCC(=O)NC2=O)c2cccc(-c3ccc(N4CCc5cc(-n6cc(NC(=O)c7cnn8cccnc78)c(C(F)F)n6)ccc5C4)nc3)c21 (stereo not drawn) : > 0.2 µM
Cn1c(=O)n(C2CCC(=O)NC2=O)c2cccc(C#CC3CCCN(C[C@H]4CC[C@H](n5cc(NC(=O)c6cnn7ccc(N8C[C@H]9C[C@@H]8CO9)nc67)c(C(F)F)n5)CC4)C3)c21 (stereo partly drawn) : > 0.2 µM
Cn1c(=O)n(C2CCC(=O)NC2=O)c2cccc(C#CCN3CCN(C[C@H]4CC[C@H](n5cc(NC(=O)c6cnn7ccc(N8CCSCC8)nc67)c(C(F)F)n5)CC4)CC3)c21 (stereo partly drawn) : < 0.01 µM
Cn1c(=O)n(C2CCC(=O)NC2=O)c2ccc(F)c(N3CC(CN4CCN(C[C@H]5CC[C@H](n6cc(NC(=O)c7cnn8ccc(N9C[C@H]%10C[C@@H]9CO%10)nc78)c(C(F)F)n6)CC5)CC4)C3)c21 (stereo partly drawn) : < 0.01 µM
CN(C[C@H]1CC[C@H](n2cc3cc(NC(=O)c4cccc(C(F)(F)F)n4)ccc3n2)CC1)C1CCN(c2cccc3c2n(C)c(=O)n3C2CCC(=O)NC2=O)CC1(F)F (stereo partly drawn) : > 0.2 µM

Request: // fetch IRAK4 (Homo sapiens, UniProt Q9NWZ3) DC50 for Cn1c(=O)n(C2CCC(=O)NC2=O)c2cccc(C3CCN(C[C@H]4CC[C@H](n5cc6cc(NC(=O)c7cccc(C(F)(F)F)n7)c(C#N)cc6n5)CC4)CC3(F)F)c21 (stereo partly drawn) [I-490]
Result: > 0.2 µM

Request: # repeat for CN(C[C@H]1CC[C@H](n2cc3cc(NC(=O)c4cccc(C(F)(F)F)n4)c(S(C)(=O)=O)cc3n2)CC1)C1CCN(c2cccc3c2n(C)c(=O)n3C2CCC(=O)NC2=O)CC1(F)F (stereo partly drawn)
Result: > 0.2 µM

Request: Also check Cn1c(=O)n(C2CCC(=O)NC2=O)c2cccc([C@H]3CCN(C[C@H]4CC[C@H](n5cc6cc(NC(=O)c7cccc(C(F)(F)F)n7)ncc6n5)CC4)C[C@@H]3F)c21 (stereo partly drawn) [I-717]
Result: < 0.01 µM

Request: Consider next the compound Cn1c(=O)n(C2CCC(=O)NC2=O)c2cccc(C#CCN3CCN(C[C@H]4CC[C@H](n5cc(NC(=O)c6cnn7ccc(N8CCC(C)(C)C8)nc67)c(C(F)F)n5)CC4)CC3)c21 (stereo partly drawn) in the same way.
Result: 0.01 to 0.1 µM

Request: Let us now turn to COc1nn([C@H]2CC[C@H](CN3CCN(CC#Cc4cccc5c4n(C)c(=O)n5C4CCC(=O)NC4=O)CC3)CC2)cc1NC(=O)c1cnn2ccc(N3C[C@H]4C[C@@H]3CO4)nc12 (stereo partly drawn)
Result: > 0.2 µM

Request: How about this compound: COc1cc2nn([C@H]3CC[C@H](CN4CCC5(CC4)CCN(c4cccc(N6CCC(=O)NC6=O)c4)CC5)CC3)cc2cc1NC(=O)c1cncc(C#N)c1
Result: > 0.2 µM

Request: And the next one, COc1cc2nn([C@H]3CC[C@H](CN4CCC5(CC4)CC(Nc4cccc6c4C(=O)N(C4CCC(=O)NC4=O)C6=O)C5)CC3)cc2cc1NC(=O)c1ccccn1 (stereo partly drawn) ?
Result: 0.01 to 0.1 µM

Request: Another compound to check: Cn1c(=O)n(C2CCC(=O)NC2=O)c2cccc(N3CCC(N4CCn5cc(-n6cc(NC(=O)c7cnn8cccnc78)c(C(F)F)n6)cc5C4)CC3)c21 (stereo not drawn)
Result: > 0.2 µM

Request: CCn1c(=O)n(C2CCC(=O)NC2=O)c2cccc(C#CCN3CCN(C[C@H]4CC[C@H](n5cc(NC(=O)c6cnn7ccc(N8C[C@H]9C[C@@H]8CO9)nc67)c(C(F)F)n5)CC4)CC3)c21 (stereo partly drawn)
Result: > 0.2 µM

Request: Repeat for the following compound: Cn1c(=O)n(C2CCC(=O)NC2=O)c2ccc(C3=CCN(C[C@H]4CC[C@H](n5cc6cc(NC(=O)c7cccc(C(F)(F)F)n7)ccc6n5)CC4)CC3(F)F)cc21 (stereo partly drawn)
Result: > 0.2 µM

Request: Now try Cn1c(=O)n(C2CCC(=O)NC2=O)c2cccc(C#CCN3CCC(C[C@H]4CC[C@H](n5cc(NC(=O)c6cnn7ccc(N8C[C@H]9C[C@@H]8CO9)nc67)c(C(F)F)n5)CC4)C(F)(F)C3)c21 (stereo partly drawn) .
Result: > 0.2 µM

Request: Next compound: CN(C[C@H]1CC[C@H](n2cc(NC(=O)c3cnn4cccnc34)c(C(F)F)n2)CC1)C1CCN(c2cccc3c2n(C)c(=O)n3C2CCC(=O)NC2=O)CC1(F)F (stereo partly drawn)
Result: > 0.2 µM

Request: Same for CC1CN(c2ccn3ncc(C(=O)Nc4cn([C@H]5CC[C@H](CN6CCN(CC#Cc7cccc8c7n(C)c(=O)n8C7CCC(=O)NC7=O)CC6)CC5)nc4C(F)F)c3n2)CCO1 (stereo partly drawn)
Result: > 0.2 µM

Request: Please give the result for Cn1c(=O)n(C2CCC(=O)NC2=O)c2cccc(C[C@H]3CN(Cc4ccc(-n5cc(NC(=O)c6cnn7ccc(N8C[C@H]9C[C@@H]8CO9)nc67)c(C(F)F)n5)cc4)CCO3)c21 (stereo partly drawn) too.
Result: > 0.2 µM

Request: Ok, now C[C@H]1CN(c2ccn3ncc(C(=O)Nc4cn([C@H]5CC[C@H](CN(C)C6CCN(c7cccc8c7n(C)c(=O)n8C7CCC(=O)NC7=O)CC6)CC5)nc4C(F)F)c3n2)CCO1 (stereo partly drawn)
Result: < 0.01 µM
